Sourced from patent US20180355061A1

experimental_target: T1, cyno PD-1 (soluble analyte in SPR) (cyno)
T1 construct: also called cynomolgus PD-1
assay: SPR (ProteOn XPR36), mAb captured on anti-human IgG Fc, cyno PD-1 as analyte, 25 C
pKd: −log10 of the molar value.
The label depends only on pKd: 1 (yes) if it is at least 8, 0 (no) if it is smaller.

Use the examples below as a reference point.
binder	group
PD1B1088 (antibody, human IgG1, kappa, V domains shown, also called VH PD1H405; VL PD1L651) VH: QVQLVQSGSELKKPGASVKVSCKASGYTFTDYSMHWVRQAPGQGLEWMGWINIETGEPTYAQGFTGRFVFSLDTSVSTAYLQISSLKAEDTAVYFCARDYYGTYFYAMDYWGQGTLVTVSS VL: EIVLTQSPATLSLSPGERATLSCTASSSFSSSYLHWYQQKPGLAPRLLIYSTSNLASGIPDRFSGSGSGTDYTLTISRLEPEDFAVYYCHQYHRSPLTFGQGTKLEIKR	0 (no)
PD1B1092 (antibody, human IgG1, kappa, V domains shown, also called VH PD1H587; VL PD1L651) VH: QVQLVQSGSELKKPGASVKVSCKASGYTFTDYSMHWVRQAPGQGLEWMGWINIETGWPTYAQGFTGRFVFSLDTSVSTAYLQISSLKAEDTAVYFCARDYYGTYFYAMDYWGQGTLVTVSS VL: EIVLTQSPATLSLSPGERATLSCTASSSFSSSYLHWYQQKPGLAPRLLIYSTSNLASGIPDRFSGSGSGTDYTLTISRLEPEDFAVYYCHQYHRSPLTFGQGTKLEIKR	1 (yes)
PD1B1089 (antibody, human IgG1, kappa, V domains shown, also called VH PD1H405; VL PD1L652) VH: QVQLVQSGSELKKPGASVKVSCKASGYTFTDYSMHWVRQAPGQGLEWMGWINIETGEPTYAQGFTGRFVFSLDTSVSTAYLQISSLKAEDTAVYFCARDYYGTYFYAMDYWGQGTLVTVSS VL: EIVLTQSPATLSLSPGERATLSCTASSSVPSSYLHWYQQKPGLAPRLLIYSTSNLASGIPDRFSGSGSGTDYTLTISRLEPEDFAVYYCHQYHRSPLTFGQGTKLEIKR	0 (no)
PD1B1086 (antibody, human IgG1, kappa, V domains shown, also called VH PD1H586; VL PD1L469) VH: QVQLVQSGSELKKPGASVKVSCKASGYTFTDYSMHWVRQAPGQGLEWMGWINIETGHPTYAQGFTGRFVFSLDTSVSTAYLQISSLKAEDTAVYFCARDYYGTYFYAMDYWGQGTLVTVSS VL: EIVLTQSPATLSLSPGERATLSCTASSSVSSSYLHWYQQKPGLAPRLLIYSTSNLASGIPDRFSGSGSGTDYTLTISRLEPEDFAVYYCHQYHRSPLTFGQGTKLEIKR	0 (no)

Lookup: Could you verify whether the entry PD1B1093 (antibody, human IgG1, kappa, V domains shown, also called VH PD1H585; VL PD1L652) VH: QVQLVQSGSELKKPGASVKVSCKASGYTFTDYSMHWVRQAPGQGLEWMGWINIETGYPTYAQGFTGRFVFSLDTSVSTAYLQISSLKAEDTAVYFCARDYYGTYFYAMDYWGQGTLVTVSS VL: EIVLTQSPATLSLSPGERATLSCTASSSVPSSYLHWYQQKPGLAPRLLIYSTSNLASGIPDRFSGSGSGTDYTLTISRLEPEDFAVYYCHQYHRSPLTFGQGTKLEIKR shows pKd of no less than 8?
Found: 1 (yes)
